These data points were gathered from paper PMC6019134.

target.system: STK38LA (Homo sapiens, UniProt Q9Y2H1)
Construct: TEV-cleavable (cleaved yes); made in house; host or cells: E. coli
Sequence (Q9Y2H1 whole entry): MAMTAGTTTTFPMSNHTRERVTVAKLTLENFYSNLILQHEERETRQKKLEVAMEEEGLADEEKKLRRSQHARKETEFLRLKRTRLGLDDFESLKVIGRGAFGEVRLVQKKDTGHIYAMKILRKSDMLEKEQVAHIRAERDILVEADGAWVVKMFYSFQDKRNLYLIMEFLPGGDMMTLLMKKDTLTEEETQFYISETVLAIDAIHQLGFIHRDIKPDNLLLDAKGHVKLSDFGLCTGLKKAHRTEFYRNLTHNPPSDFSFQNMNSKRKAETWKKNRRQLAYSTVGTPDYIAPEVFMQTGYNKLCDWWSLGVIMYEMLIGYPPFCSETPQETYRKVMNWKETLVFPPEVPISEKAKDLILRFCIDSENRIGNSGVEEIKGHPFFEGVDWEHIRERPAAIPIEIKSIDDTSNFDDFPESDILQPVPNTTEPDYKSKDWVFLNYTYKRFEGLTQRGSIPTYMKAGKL
protocol.notes: DSF thermal shift, kinase panel
Assay type: binding
test.parameters: 10 μM compound
Description: The corresponding dianilino-TDZs (1–5) were tested on a panel of 46 protein kinases representing the major kinome branches at a concentration of 10 μM using a Differential Scanning Fluorimetry (DSF). […] Protein thermal shift data was measured in a qPCR instrument (Applied Biosystems QuantStudio 6) programmed to equilibrate the plate at 25 °C for 5 min followed by ramping the temperature to 95 °C at a rate of 0.05 °C/s. […]
observable: ΔTm at 10 µM (°C)

# input.smiles, observable, test.result
data = [
    ("Cc1ccc(Nc2nsnc(Nc3ccc4c(c3)CS(=O)(=O)C4)c2=O)cc1O", "ΔTm at 10 µM", 0.8),
    ("CNC(=O)c1ccccc1Nc1nsnc(Nc2cccc(CS(C)(=O)=O)c2)c1=O", "ΔTm at 10 µM", 0.4),
    ("Cc1ccc(Nc2nsnc(Nc3ccc(C(N)=O)cc3)c2=O)cc1O", "ΔTm at 10 µM", 0.4),
    ("Cc1ccc(Nc2nsnc(Nc3cccc(C(N)=O)c3)c2=O)cc1O", "ΔTm at 10 µM", 0.2),
    ("CNC(=O)c1ccccc1Nc1nsnc(Nc2ccc(N3CCOCC3)cc2)c1=O", "ΔTm at 10 µM", 0.3),
]
